Molecular target: hMOR (Homo sapiens (Human), UniProt P35372)
Assay: cAMP accumulation assay (inhibition of forskolin-stimulated cAMP) in CHO-K1 cells stably expressing hMOR
Assay type: cell-based
Quantity Measured: IC50

>>> test_value("COCCOc1ccc2c(c1)[C@]13CCN(C)[C@H](C2)[C@@H]1CCC(=O)C3")
"100 to 1000 nM"
>>> test_value("CN1CC[C@]23CCCC[C@H]2[C@H]1Cc1ccc(-c2cn[nH]c2)cc13")
"10 to 100 nM"
>>> test_value("COCCOCCN1CC[C@]23CCCC[C@H]2[C@H]1Cc1ccc(O)cc13")
"10 to 100 nM"
>>> test_value("CN1CC[C@]23CCCC[C@H]2[C@H]1Cc1ccc(Nc2cccnc2)cc13")
"0.1 to 10 nM"
>>> test_value("CN1CC[C@]23CCCC[C@H]2[C@H]1Cc1ccc(N)cc13")
"100 to 1000 nM"

###

Target: mu opioid receptor (MOR) (Homo sapiens (Human), UniProt P35372)
Assay: Competitive radioligand binding at MOR ([3H] Naloxone)
Reported values of IC50 for individual entries
Quantity Measured: IC50

>>> test_value("CN1CC[C@]23CCCC[C@H]2[C@H]1Cc1ccc(Nc2ccnnc2)cc13")
"100 to 1000 nM"
>>> test_value("COCCOCCN1CC[C@]23CCCC[C@H]2[C@H]1Cc1ccc(Nc2ccncc2)cc13")
"100 to 1000 nM"
>>> test_value("COCCN1CC[C@]23CCCC[C@H]2[C@H]1Cc1ccc(Nc2cccnc2)cc13")
"0.1 to 10 nM"
>>> test_value("COCCOc1ccc2c(c1)[C@]13CCN(C)[C@H](C2)[C@@H]1CCC(=O)C3")
"100 to 1000 nM"

###

Target: NMDA receptor
Assay: Competitive radioligand binding at NMDA receptor ([3H] MK801), rat forebrain membranes
Settings: 0.2 nM [3H] MK801, reflects free base activity
pIC50: −log10 of the molar value.
Reported values of pIC50 for individual entries
Quantity Measured: pIC50

>>> test_value("CCNC(=O)N1CC[C@]23CCCC[C@H]2[C@H]1Cc1ccc(OC)cc13")
"< 5.00"
>>> test_value("CN1CC[C@]23CCCC[C@H]2[C@H]1Cc1cc2nc(N)[nH]c2cc13")
"< 5.00"
>>> test_value("COCCOCCOCCO[C@H]1CC[C@H]2[C@H]3Cc4ccc(O)cc4[C@@]2(CCN3C)C1")
"< 5.00"
>>> test_value("COCCOCCN1CC[C@]23CCCC[C@H]2[C@H]1Cc1ccc(-c2cn[nH]c2)cc13")
"5.00 to 6.00"

###

Target: mu opioid receptor (MOR) (Homo sapiens (Human), UniProt P35372)
Assay: Competitive radioligand binding at MOR ([3H] Naloxone)
Quantity Measured: IC50

>>> test_value("COCCOCCN1CC[C@]23CCCC[C@H]2[C@H]1Cc1ccc(Nc2nccs2)cc13")
"100 to 1000 nM"
>>> test_value("CN1CC[C@]23CCCC[C@H]2[C@H]1Cc1cc2nc[nH]c2cc13")
"10 to 100 nM"
>>> test_value("COCCOCCN1CC[C@]23CC(=O)CC[C@H]2[C@H]1Cc1ccc(OC)cc13")
"100 to 1000 nM"
>>> test_value("CN1CC[C@]23CCCC[C@H]2[C@H]1Cc1ccc(Nc2cnccn2)cc13")
"0.1 to 10 nM"
>>> test_value("COc1ccccc1Nc1ccc2c(c1)[C@@]13CCCC[C@H]1[C@@H](C2)N(C)CC3")
"10 to 100 nM"
>>> test_value("CN1CC[C@]23CCCC[C@H]2[C@H]1Cc1ccc(Nc2nccs2)cc13")
"10 to 100 nM"
>>> test_value("COCCOCCN1CC[C@]23CCCC[C@H]2[C@H]1Cc1ccc(Nc2cncc(F)c2)cc13")
"10 to 100 nM"
>>> test_value("CN1CC[C@]23CCCC[C@H]2[C@H]1Cc1ccc(Nc2cccnn2)cc13")
"100 to 1000 nM"
>>> test_value("COc1ccc(Nc2ccc3c(c2)[C@@]24CCCC[C@H]2[C@@H](C3)N(C)CC4)cc1")
"0.1 to 10 nM"
>>> test_value("CN1CC[C@]23CCCC[C@H]2[C@H]1Cc1ccc(NS(C)(=O)=O)cc13")
"100 to 1000 nM"
>>> test_value("COCCOCCN1CC[C@]23CCCC[C@H]2[C@H]1Cc1ccc(-c2ccoc2)cc13")
"100 to 1000 nM"
>>> test_value("CN1CC[C@]23CCCC[C@H]2[C@H]1Cc1ccc(Nc2cncnc2)cc13")
"10 to 100 nM"
